# TARGET DESC: UniProtKB P08631
# Sequence (P08631 whole entry, looked up): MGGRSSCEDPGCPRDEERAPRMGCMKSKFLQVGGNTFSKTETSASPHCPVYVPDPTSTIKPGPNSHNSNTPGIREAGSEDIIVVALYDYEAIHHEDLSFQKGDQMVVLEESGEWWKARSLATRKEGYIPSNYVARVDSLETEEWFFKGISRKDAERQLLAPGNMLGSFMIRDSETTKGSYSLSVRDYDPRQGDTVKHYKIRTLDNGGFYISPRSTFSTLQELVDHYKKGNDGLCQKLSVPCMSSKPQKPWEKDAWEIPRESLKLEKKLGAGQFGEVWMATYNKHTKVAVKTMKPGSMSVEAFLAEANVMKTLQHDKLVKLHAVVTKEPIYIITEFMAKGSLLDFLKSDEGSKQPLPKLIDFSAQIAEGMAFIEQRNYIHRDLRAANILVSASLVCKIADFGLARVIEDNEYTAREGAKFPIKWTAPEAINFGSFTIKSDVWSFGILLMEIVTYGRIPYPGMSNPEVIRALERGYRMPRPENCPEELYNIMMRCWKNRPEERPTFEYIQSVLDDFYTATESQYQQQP
# TEST: inhibitors of human HCK tyrosine kinase activity – biochemical, Z'-LYTE, FRET readout, direct format, dose response (AID 1671291)
# PROTOCOL CONDITIONS: Z'-LYTE FRET peptide phosphorylation, recombinant HCK
ASSAY METRIC: IC50

[[record]]
chemical_smiles = "COc1cc2ncnc(Nc3cccc(Cl)c3)c2cc1OC"
result = "943 nM"

